Recorded log10 koff, one value per entry.
tested target: Bac-F
test details: BIAcore, mAb vs Bac-F (1:1)
measured quantity: log10 koff (log10 of the value in s⁻¹)

>  <binder>
A12a6 (monoclonal antibody) (antibody, V domains shown) VH: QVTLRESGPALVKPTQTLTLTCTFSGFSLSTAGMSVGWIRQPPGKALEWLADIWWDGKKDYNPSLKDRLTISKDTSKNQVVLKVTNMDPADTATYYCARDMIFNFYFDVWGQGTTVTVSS VL: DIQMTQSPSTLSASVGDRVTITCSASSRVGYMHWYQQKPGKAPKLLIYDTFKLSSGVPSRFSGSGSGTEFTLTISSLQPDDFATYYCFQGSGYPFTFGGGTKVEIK

>  <value>
-4.78

$$$$
>  <binder>
A17d4 (monoclonal antibody) (antibody, V domains shown) VH: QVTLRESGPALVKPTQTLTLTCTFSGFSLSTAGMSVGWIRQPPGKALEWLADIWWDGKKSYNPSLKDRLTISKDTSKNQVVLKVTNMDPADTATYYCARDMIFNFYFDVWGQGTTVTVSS VL: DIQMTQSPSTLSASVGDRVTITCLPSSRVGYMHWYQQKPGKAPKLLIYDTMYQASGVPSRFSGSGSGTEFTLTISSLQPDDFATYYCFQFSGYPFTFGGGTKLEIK

>  <value>
-4.39

$$$$
>  <binder>
A1e9 (monoclonal antibody) (antibody, V domains shown) VH: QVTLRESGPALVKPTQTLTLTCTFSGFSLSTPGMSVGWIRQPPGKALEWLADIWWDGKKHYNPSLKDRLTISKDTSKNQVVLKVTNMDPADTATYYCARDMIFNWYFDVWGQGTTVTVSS VL: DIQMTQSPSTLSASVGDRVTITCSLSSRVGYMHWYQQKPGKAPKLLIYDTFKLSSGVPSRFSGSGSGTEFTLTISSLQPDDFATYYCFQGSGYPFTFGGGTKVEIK

>  <value>
-3.84

$$$$
>  <binder>
P11d4 (monoclonal antibody) (antibody, V domains shown) VH: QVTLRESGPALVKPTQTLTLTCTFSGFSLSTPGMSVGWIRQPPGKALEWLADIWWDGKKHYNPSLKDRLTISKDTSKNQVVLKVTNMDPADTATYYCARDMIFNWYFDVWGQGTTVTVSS VL: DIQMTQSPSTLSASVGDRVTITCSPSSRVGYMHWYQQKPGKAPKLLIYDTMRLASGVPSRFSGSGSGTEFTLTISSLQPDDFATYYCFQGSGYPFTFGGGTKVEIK

>  <value>
-3.54

$$$$
>  <binder>
P12f2 (monoclonal antibody) (antibody, V domains shown) VH: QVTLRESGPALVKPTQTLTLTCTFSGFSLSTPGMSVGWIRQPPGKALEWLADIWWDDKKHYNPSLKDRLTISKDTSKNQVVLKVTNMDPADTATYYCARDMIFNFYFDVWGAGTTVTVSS VL: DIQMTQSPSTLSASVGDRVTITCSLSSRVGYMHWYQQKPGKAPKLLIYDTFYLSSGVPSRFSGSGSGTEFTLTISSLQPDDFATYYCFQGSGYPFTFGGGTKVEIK

>  <value>
-3.89

$$$$
